The measurements presented in this section are drawn from patent US20170355757A1.

- Tested Target: Cynomolgus monkey C5 (cynomolgus monkey, UniProt A0A2K5U1T1 19-1676)
- Measurement Protocol: cell-based or functional assay
Each item that follows carries a reported Cyno CP % Max Inhibition, hemolysis assay, 5% serum.
Observation Type: Cyno CP % Max Inhibition, hemolysis assay, 5% serum (%)

1. H4H12168P (antibody, human IgG4, V domains shown, H4H: human IgG4 Fc with S108P hinge mutation) VH: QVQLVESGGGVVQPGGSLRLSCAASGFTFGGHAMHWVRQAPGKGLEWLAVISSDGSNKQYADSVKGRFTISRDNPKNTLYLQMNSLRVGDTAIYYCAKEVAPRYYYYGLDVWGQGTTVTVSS VL: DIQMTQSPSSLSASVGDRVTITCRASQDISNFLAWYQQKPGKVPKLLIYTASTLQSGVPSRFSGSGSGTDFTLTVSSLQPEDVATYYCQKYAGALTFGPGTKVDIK :: 99
2. H4H12163P (antibody, human IgG4, V domains shown, H4H: human IgG4 Fc with S108P hinge mutation) VH: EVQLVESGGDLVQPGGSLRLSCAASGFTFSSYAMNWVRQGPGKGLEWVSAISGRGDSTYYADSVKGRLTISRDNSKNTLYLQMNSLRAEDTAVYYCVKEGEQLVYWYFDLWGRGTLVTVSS VL: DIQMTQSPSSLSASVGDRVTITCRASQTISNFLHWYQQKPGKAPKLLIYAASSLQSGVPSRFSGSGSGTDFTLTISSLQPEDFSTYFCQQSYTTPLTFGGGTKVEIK :: 96.4
3. H4H12170P (antibody, human IgG4, V domains shown, H4H: human IgG4 Fc with S108P hinge mutation) VH: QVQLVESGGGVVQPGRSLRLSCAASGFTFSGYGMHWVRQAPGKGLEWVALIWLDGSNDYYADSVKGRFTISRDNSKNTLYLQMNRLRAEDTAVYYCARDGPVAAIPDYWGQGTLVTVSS VL: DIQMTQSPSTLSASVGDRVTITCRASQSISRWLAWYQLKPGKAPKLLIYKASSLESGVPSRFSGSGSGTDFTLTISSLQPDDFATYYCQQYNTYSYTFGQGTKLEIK :: 99
4. H4H12175P (antibody, human IgG4, V domains shown, H4H: human IgG4 Fc with S108P hinge mutation) VH: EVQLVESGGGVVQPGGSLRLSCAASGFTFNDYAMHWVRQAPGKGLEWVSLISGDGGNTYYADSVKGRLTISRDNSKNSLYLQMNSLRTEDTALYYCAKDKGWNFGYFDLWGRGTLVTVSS VL: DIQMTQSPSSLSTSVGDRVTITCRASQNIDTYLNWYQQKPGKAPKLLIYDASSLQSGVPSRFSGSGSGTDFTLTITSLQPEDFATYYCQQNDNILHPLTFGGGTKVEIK :: 96.7
5. H4H12166P (antibody, V domains shown) VH: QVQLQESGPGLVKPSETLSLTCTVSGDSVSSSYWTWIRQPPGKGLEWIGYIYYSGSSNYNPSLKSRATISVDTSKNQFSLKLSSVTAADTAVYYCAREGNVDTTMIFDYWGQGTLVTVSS VL: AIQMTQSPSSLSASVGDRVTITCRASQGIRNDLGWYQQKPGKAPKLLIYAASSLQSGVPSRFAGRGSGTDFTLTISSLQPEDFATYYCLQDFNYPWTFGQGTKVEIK :: 94.2
